This section presents sequences with their documented Kd values.
# system tested: hA5 (human S100A5) (Homo sapiens, UniProt P33763)
# Construct: His tag with TEV protease cleavage site (N, cleaved yes); made in house; host or cells: Rosetta E. coli (DE3) pLysS
# Sequence (P33763 whole entry): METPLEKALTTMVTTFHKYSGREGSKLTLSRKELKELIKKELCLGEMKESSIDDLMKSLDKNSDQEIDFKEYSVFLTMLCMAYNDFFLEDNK
# assay procedure: Fluorescence polarization, displacement of 5FAM probe peptide
# Format: binding
# condition info: displacement of 5FAM-labelled probe, 50 mM TES, 100 mM NaCl, 0.01% Tween-20, pH 7.4, 2.4-4.2 µM protein with equal probe, technical triplicate, corrected for probe
# From the text: To mimic the phage display experiment, we measured binding by displacement of a fluorescently labeled probe peptide. […] We could then measure fluorescence polarization of the probe peptide as a function of increasing concentrations of unlabeled peptide. A peptide that binds at the same site as the probe will displace the probe and thereby change the fluorescence polarization. […] We measured fluorescence anisotropy using a SpectraMax i3 plate reader (Molecular Devices) with 96-well black plates (Corning). […]
Ends that are not written are not given here.
Field: numeric (µM). Do not append units.

# annotated cases, reported Kd shown
[
  {
    "seq string": "GWLEQYFSRTADGGSAE [phage_ctl_2]",
    "observation type": "Kd",
    "unit label": "µM",
    "obs value": 18.6
  },
  {
    "seq string": "RHGFLQDILFKLGGSAE [phage_ctl_1]",
    "observation type": "Kd",
    "unit label": "µM",
    "obs value": 36.4
  },
  {
    "seq string": "HVQWRDRNVIEWGGSAE [phage_ctl_6]",
    "observation type": "Kd",
    "unit label": "µM",
    "obs value": 123
  },
  {
    "seq string": "EQPLLKYLQLMRGGSAE [phage_ctl_5]",
    "observation type": "Kd",
    "unit label": "µM",
    "obs value": 85.8
  }
]

Please turn your attention to the following entry.
-- ask Please give the documented Kd of EGLDLMSILELIGGSAE [phage_ctl_0]
-- reply 47.2
